Data provenance: PubChem BioAssay (NCI)

- Tested on: U251 CNS
- ASSAY OVERVIEW: NCI tumour cell line growth inhibition, 48 h
MEASURE: TGI

Some compounds with recorded TGI:
[
  {
    "COMPOUND": "CC(C)OC(=O)C1Cc2c([nH]c3ccccc23)C(c2ccccc2)N1 (stereo unspecified)",
    "MEASURE": "TGI",
    "REPORTED RESULT": "> 100 µM"
  },
  {
    "COMPOUND": "CN(C)CC(/C(Cc1ccccc1)=N\\NC(=S)NN)c1ccccc1 (stereo unspecified)",
    "MEASURE": "TGI",
    "REPORTED RESULT": "> 100 µM"
  },
  {
    "COMPOUND": "CC(=O)O[C@@H]1[C@H]2[C@@H](OC(=O)c3ccccc3)[C@@H](C)C[C@]2(O)[C@H](OC(C)=O)[C@@]2(C)[C@@H]3C[C@@](C)(OC(C)=O)C[C@@H](OC(C)=O)[C@@]3(OC(C)=O)C[C@@]12C",
    "MEASURE": "TGI",
    "REPORTED RESULT": "> 10 µM"
  },
  {
    "COMPOUND": "C=CC[N+]1(CC)CCN=C1CCCCCCCCCCCCCCCCC (stereo unspecified)",
    "MEASURE": "TGI",
    "REPORTED RESULT": "1.47 µM"
  },
  {
    "COMPOUND": "CN(C)CCCn1c2c(c3cc4c(cc3c1=O)OCO4)C(=O)c1ccccc1-2",
    "MEASURE": "TGI",
    "REPORTED RESULT": "3.5 µM"
  },
  {
    "COMPOUND": "NC(CCCCNCc1ccccc1O)C(=O)O (stereo unspecified)",
    "MEASURE": "TGI",
    "REPORTED RESULT": "> 100 µM"
  }
]

The following compounds each have a reported value; give each one's TGI.
1. CSc1nc2c3ccccc3ccn2c1C(=O)N/N=C/c1ccccc1
2. c1ccc(C2=C(c3ccccc3)Sc3nnc(CCCCCCCCc4nnc5n4NC(c4ccccc4)=C(c4ccccc4)S5)n3N2)cc1
3. CCc1ccccc1NC(=O)CC1NC(=O)CS1 (stereo unspecified)
4. OC1COC(OCc2ccccc2)C(O)C1O (stereo unspecified)
5. O=C(c1ccco1)c1c(C(F)(F)F)n([O-])c2cc(F)c(F)cc2[n+]1=O

Solution:
1: 37.7 µM; 2: > 100 µM; 3: > 100 µM; 4: > 100 µM; 5: 0.291 µM
